# assayed.system: Neu5Ac(a2-8)Neu5Ac(a2-3)[Gal(b1-3)GalNAc(b1-4)]Gal(b1-4)Glc
# procedure.text: glycan array binding signal (z-score within array); higher = stronger binding
# experimental.setup: glycan notation: IUPAC condensed, linker removed
The entries come from a sample that favours the strongest signals as a whole.
We begin with a simple list: items and their reported glycan array binding signal (z-score).
measurement.label: glycan array binding signal (z-score)

binder	measurement.label	experimental.value
MIC4-A5 (Toxoplasma gondii), Q9XZH7 (protein) SPDFHDEVECVHTGNIGSKAQTIGEVKRASSLSECRARCQAEKECSHYTYNVKSGLCYPKRGKPQFYKYLGDMTGSRTCDTS	glycan array binding signal (z-score)	6.1
AFL6 (Aspergillus fumigatus), Q4WKJ1 (protein) MSFHLTAEDIRIEDGHRLVARLRNADGDLQDASIDLNTCLGNDNGHFQWDGVDFSHSAQDVHFAIEGGGQVPVLRAQLANQDGEFQDADVNLSERIENINGEFVFH	glycan array binding signal (z-score)	-0.306
SefD (Salmonella enterica), Q9L6K6 (protein) GAYIIRGQNNSAHKLRIRIGGEDWQPDNSGIGMVSHSDFTNEFNIYYFGNGDIPVDTYLISIYATEIEL	glycan array binding signal (z-score)	0.969
Als3-41 (Candida albicans) (protein) KTITGVFNSFNSLTWSNAATYNYKGPGTPTWNAVLGWSLDGTSASPGDTFTLNMPCVFKFTTSQTSVDLTAHGVKYATCQFQAGEEFMTFSTLTCTVSNTLTPSIKALGTVTLPLAFNVGGTGSSVDLEDSKCFTAGTNTVTFNDGGKKISINVDFERSNVDPKGYLTDSRVIPSLNKVSTLFVAPQCANGYTSGTMGFANTYGDVQIDCSNIHVGITKGLNDWNYPVSSESFSYTKTCSSNGIFITYKNVPAGYRPFVDAYISATDVNSYTLSYANEYTCAGGYWQRAPFTLRWTGYRNSDAGSNGIVIVATTRTVTDSTTAVTTLPFDPNRDKTKTIEILKPIPTTTITTSYVGVTTSYLTKTAPIGETATVIVD	glycan array binding signal (z-score)	-0.006
Epa3 (Candida glabrata), Q6VBI8_CANGB (protein) MGSSHHHHHHSSGLVPRGSHMNDLGFSLFEKRELSSQNPFGYPIGCSPQDVAIIPGLTMELYSYPIVSGTPPNCYDASYVDPEYPRTGYLKRKMVGKSTGVTGNLNYKYSVEKACMVKYGNLPAGYNYNEPLTVSNFTMILYGYFKAQTTGLHTFFVNADDLLYINFGAGNAFDCCKREDSKTKLGEYVAYDIWHVDSSKNKVSLFLEKDLYYPIRMFFNNIGKDSSLDLSFSVNGATDQISDFSGYLYSVPDQPDTCPAHIGYDTTCR	glycan array binding signal (z-score)	2.2
